Data credit: PubChem BioAssay AID1159580

Experimental Protocol: chemical genetic growth profiling, strain panel (AID 1159580);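 note: tested at 20 µM; growth read once vehicle control cultures reached saturation at 30 °C; 1 = growth at the plate median or of vehicle wells; lower values mean less growth of the strain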
Experimental Context: S. cerevisiae deletion strains, growth OD, locus YJR043C, strain POL32, hits give low values
Among all 5,500 compounds or so, about 2,000 (36%) were called active. Roughly 18% stayed inconclusive and do not appear here. The list shows a part of the results.
Please go through the items and note down their normalized growth.
Output spec: single numeric token, no unit.

Any idea what its normalized growth is? The molecule is CC(=O)O[C@H]1C[C@@]2(C)[C@H](c3ccoc3)OC(=O)[C@H]3O[C@]32[C@@]2(C)C1[C@]1(C)C(C[C@H]2OC(C)=O)C(C)(C)[C@H](OC(C)=O)C[C@@H]1OC(C)=O (stereo partly drawn)
0.974

Subsequent entry: `CCCCCn1c(Sc2ncc([N+](=O)[O-])s2)n[nH]c1=O`
0.695

Subsequent entry: `N[C@@H]1CONC1=O`
1

Subsequent entry: CC(=O)O[C@@H]1CC2C(C)(C)CCC(=O)[C@]2(C)C2CC[C@@]3(C)[C@H](c4ccoc4)OC(=O)C4OC43[C@@]21C (stereo partly drawn)
1.02

Subsequent entry: `CC1=C2C(=CO[C@H](C)[C@H]2C)C(=O)C(C(=O)O)=C1O`
1.02

Subsequent entry: CC(=O)O[C@@H]1CC2C(C)(C)[C@H](O)C[C@H](O)[C@]2(C)C2CC[C@@]3(C)[C@H](c4ccoc4)OC(=O)[C@H]4O[C@]43[C@@]21C (stereo partly drawn)
0.963

Subsequent entry: CC(=O)OC1CC2C(C)(C)CCCC2(C)C2CCC3(C)C(c4ccoc4)OC(=O)C4OC43C12C (stereo not drawn)
0.978

Subsequent entry: `C=CCn1c(Sc2ncc([N+](=O)[O-])s2)n[nH]c1=O`
0.968
